B1: Twister Ribozyme (parent)
chain: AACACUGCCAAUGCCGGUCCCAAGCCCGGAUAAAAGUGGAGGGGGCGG

Variants of: B1
Experiment: self-cleavage, relative activity (ratio to wild type); higher = more cleavage; co-transcriptional
Think of 0.2 as a floor: if self-cleavage stands on it or above, it is Fulfilled; beneath it, Not fulfilled.

{"VARIANT_KEY": "U31A G41A", "CATEGORY": "Fulfilled"}
{"VARIANT_KEY": "G39C G42C", "CATEGORY": "Not fulfilled"}
{"VARIANT_KEY": "A2G G45U", "CATEGORY": "Not fulfilled"}
{"VARIANT_KEY": "C21A A22G", "CATEGORY": "Not fulfilled"}
{"VARIANT_KEY": "G36A G45U", "CATEGORY": "Fulfilled"}
{"VARIANT_KEY": "G13U A35U", "CATEGORY": "Fulfilled"}
{"VARIANT_KEY": "A2U G13C", "CATEGORY": "Not fulfilled"}
{"VARIANT_KEY": "A4G C26G", "CATEGORY": "Not fulfilled"}
{"VARIANT_KEY": "U12G C14G", "CATEGORY": "Not fulfilled"}
{"VARIANT_KEY": "C3G A33C", "CATEGORY": "Fulfilled"}

Challenge: Determine whether this variant has self-cleavage no lower than 0.2: G29A A33C
Response given: Fulfilled

Challenge: Determine whether this variant has self-cleavage no lower than 0.2: C9A G44A
Response given: Fulfilled

Challenge: Determine whether this variant has self-cleavage no lower than 0.2: C25U G28U
Response given: Fulfilled
